method_summary: Positive inotropic effect in Sprague-Dawley rat ventricular myocytes assessed as change in ventricular cell contractility at 50 uM by video edge detector relative to control
Format: functional, Ventricular myocyte
Classification by Activity | ranges: range 1: < 4%; range 2: ≥ 4% and < 40%; range 3: ≥ 40%

The following molecules have reported results that may help.
molecule | class_name
COc1c(-c2cccc(O)c2)oc2cc(Cl)ccc2c1=O | range 3
COc1c(-c2ccc(O)cc2)oc2cc(Cl)ccc2c1=O | range 3
COc1cc(-c2oc3ccc(O)cc3c(=O)c2O)ccc1O | range 1
COc1cc(-c2oc3cc(Cl)ccc3c(=O)c2OC)ccc1O | range 3
COc1ccc(-c2oc3cc(OC)c(OC)c(O)c3c(=O)c2OC)cc1OC [ARTEMETIN] | range 2

input: For the record COc1ccc2c(=O)c(OC)c(-c3ccc(O)c(OC)c3)oc2c1 , report the class its Activity corresponds to.
output: range 3

input: Another: COc1cc(-c2oc3ccccc3c(=O)c2OC)ccc1O
output: range 3

input: Try this molecule next: COc1cc(-c2oc3ccc(O)cc3c(=O)c2OC)ccc1O
output: range 2

input: Item: COc1cc(-c2oc3cccc(O)c3c(=O)c2O)ccc1O
output: range 1

input: Proceed to COc1cc(/C=C/C(=O)c2ccc(Cl)cc2O)ccc1O
output: range 1

input: What about this molecule? COc1cc(-c2oc3cc(OC)c(O)c(O)c3c(=O)c2OC)ccc1O [CHRYSOSPLENOL C]
output: range 3

input: Query COc1cccc(-c2oc3cc(Cl)ccc3c(=O)c2O)c1 next
output: range 1

input: Now consider O=c1c(O)c(-c2ccc(O)cc2)oc2cc(Cl)ccc12 and answer again.
output: range 2

input: Continue with COc1cc(-c2oc3cccc(O)c3c(=O)c2OC)ccc1O
output: range 2

input: Do the same for COc1ccc2c(=O)c(O)c(-c3ccc(O)cc3)oc2c1 please
output: range 2

input: What about this molecule? COc1ccc2c(=O)c(OC)c(-c3ccc(Cl)cc3)oc2c1
output: range 1

input: Then COc1ccc2c(=O)c(OC)c(-c3ccc(O)cc3)oc2c1 ?
output: range 2

input: What would you report for COc1cc(-c2oc3cc(Cl)ccc3c(=O)c2O)ccc1O ?
output: range 3

input: Could you do the same for COc1c(-c2ccc(Cl)cc2)oc2cc(Cl)ccc2c1=O , please?
output: range 1

input: Moving on to COc1cc(-c2cc(=O)c3ccc(Cl)cc3o2)ccc1O
output: range 1

input: // next record COc1cccc(-c2oc3cc(Cl)ccc3c(=O)c2OC)c1
output: range 2

input: Entry to check: COc1cc(-c2oc3ccccc3c(=O)c2O)ccc1O
output: range 2

----------
Species: Bos taurus
method_summary: Activation of cardiac myosin S1 ATPase in bovine sarcomere at 10 uM by spectrophometric analysis in presence of actin thin filament complex relative to control
measurement_name: Activity (%)
Answer format: numeric, % implied, no suffix.

In the examples that follow, each entry is paired with its recorded Activity.
mol | scale_unit | assay_result
COc1ccc2c(=O)c(OC)c(-c3ccc(O)cc3)oc2c1 | % | 30.9
COc1cc(-c2oc3cccc(O)c3c(=O)c2OC)ccc1O | % | 0
COc1cc(-c2oc3cc(OC)c(O)c(O)c3c(=O)c2OC)ccc1O | % | 28.1
COc1c(-c2ccc(O)cc2)oc2cc(Cl)ccc2c1=O | % | 28.9
COc1ccc2c(=O)c(O)c(-c3ccc(O)c(OC)c3)oc2c1 | % | 0

input: Activity lookup needed for COc1c(-c2cccc(O)c2)oc2cc(Cl)ccc2c1=O , thanks.
output: 38.7

input: Same again, this time with COc1ccc2c(=O)c(OC)c(-c3ccc(O)c(OC)c3)oc2c1
output: 33.7

input: Also COc1cc(-c2oc3cc(Cl)ccc3c(=O)c2OC)ccc1O ?
output: 36.4

input: Continue with COC(=O)N1CCN(Cc2cccc(NC(=O)Nc3ccc(C)nc3)c2F)CC1
output: 80.4
